Reference for the values: patent US20210347873A1

target-or-system: mouse BLyS protein (mouse, UniProt Q9WU72 69-309)
Sequence (Q9WU72 69-309): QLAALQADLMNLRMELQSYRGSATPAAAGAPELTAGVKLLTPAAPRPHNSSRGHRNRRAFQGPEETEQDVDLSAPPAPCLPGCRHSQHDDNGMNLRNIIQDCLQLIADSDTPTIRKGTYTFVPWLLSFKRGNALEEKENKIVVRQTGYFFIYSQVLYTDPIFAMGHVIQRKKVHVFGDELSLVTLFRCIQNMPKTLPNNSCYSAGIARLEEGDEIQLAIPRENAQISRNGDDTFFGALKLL
method: cell-based or functional assay
assay-endpoint: mouse B lymphocyte proliferation (OD450 nm), antibody 0.032 nM

97E7B3F2 (antibody, V domains shown, Mouse hybridoma monoclonal antibody purified on Protein G) VH: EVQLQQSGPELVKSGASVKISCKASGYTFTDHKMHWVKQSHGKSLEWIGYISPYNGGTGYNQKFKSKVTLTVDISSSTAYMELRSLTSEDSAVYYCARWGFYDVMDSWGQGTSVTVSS VL: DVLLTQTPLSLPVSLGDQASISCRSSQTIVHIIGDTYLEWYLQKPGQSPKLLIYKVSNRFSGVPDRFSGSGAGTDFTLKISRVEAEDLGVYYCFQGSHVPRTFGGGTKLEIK	2580
111D10D6G3 (antibody, V domains shown, Mouse hybridoma monoclonal antibody purified on Protein G) VH: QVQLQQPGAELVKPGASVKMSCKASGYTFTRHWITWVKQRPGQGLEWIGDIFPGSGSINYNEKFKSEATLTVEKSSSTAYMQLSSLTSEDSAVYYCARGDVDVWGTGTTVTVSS VL: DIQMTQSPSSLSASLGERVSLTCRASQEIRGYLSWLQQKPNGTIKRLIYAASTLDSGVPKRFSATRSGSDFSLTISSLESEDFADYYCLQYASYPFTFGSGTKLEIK	2320
20D1B6E9E5 (antibody, V domains shown, Mouse hybridoma monoclonal antibody purified on Protein G) VH: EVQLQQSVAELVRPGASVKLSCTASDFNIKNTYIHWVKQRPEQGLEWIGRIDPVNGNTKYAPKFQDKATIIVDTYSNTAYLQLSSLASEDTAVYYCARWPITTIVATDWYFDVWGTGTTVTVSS VL: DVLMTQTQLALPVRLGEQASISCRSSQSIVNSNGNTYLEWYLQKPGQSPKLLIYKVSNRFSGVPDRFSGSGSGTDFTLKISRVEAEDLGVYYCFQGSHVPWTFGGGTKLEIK	2380
L1D12 (antibody, V domains shown, From a human naive scFv phage library; also called human BLyS antibody L1D12; LID12) VH: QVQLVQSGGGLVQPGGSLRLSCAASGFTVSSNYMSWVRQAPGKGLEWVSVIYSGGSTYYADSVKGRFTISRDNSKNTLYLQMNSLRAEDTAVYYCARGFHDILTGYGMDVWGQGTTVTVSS VL: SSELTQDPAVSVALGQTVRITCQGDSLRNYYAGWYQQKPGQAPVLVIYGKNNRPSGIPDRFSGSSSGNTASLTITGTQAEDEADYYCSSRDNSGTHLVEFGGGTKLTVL	2460
35E6F7C3 (antibody, V domains shown, Mouse hybridoma monoclonal antibody purified on Protein G) VH: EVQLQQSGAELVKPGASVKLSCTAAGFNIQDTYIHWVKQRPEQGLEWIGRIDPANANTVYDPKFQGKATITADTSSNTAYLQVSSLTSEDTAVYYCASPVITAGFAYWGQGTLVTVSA VL: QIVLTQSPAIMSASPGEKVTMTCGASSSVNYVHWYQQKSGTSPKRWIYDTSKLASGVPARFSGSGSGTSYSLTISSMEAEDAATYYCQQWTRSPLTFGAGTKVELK	2430
